meta.source: patent US20110136733A1

Target: T1, human recombinant GIP receptor (human, UniProt P48546 22-466)
T1 construct: whole, on cells; Membranes of CHO-K1 cells expressing the receptor; also called hGIP receptor
T1 sequence (looked up): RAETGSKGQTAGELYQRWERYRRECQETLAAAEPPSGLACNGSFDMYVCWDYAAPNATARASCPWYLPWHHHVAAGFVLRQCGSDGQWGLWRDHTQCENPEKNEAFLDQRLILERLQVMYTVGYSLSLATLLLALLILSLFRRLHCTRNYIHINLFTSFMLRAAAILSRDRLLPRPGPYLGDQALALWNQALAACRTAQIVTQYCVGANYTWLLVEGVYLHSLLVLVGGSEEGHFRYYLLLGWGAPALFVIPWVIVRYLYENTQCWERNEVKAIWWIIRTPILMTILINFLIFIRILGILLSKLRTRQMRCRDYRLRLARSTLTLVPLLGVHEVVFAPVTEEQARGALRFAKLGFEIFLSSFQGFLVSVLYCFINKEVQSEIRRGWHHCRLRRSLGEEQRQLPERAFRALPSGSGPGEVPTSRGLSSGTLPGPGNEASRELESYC
Experiment: [125I]GIP competition, membranes of CHO-K1 cells expressing human GIP receptor
Where no end group is shown, it is not given here. [ ]: non-standard residue; d: D form. Aib = CC(C)(N)C(=O)O
Each entry below carries its reported Ki.
Parameter Measured: Ki (nM)

INSERT INTO measurements (binder, parameter_measured, test_result) VALUES
  ('Y[Aib]E[Aib]TFISDYSIAMDKIHQQDFVNWLLAQKGKKNDWKHNITQ-OH [(Aib^2, 4)hGIP(1-42)-OH]', 'Ki', 80.1),
  ('YAPGTFISDYXIAMDKIHQQDFVNWLLAQK (A5c at 11; C-terminal amide) [(Pro^3, A5c^11)hGIP(1-30)-NH2]', 'Ki', 65.8),
  ('YXEXTFISDYSIAMDKIHQQDFVNWLLAQK (Aib at 2 and 4; C-terminal amide) [(Aib^2, 4)hGIP(1-30)-NH2]', 'Ki', 107);
